# study.target: AKT1 WT (Homo sapiens)
# Construct: expressed in transfected cells; host or cells: HEK293
# Sequence (P31749 whole entry): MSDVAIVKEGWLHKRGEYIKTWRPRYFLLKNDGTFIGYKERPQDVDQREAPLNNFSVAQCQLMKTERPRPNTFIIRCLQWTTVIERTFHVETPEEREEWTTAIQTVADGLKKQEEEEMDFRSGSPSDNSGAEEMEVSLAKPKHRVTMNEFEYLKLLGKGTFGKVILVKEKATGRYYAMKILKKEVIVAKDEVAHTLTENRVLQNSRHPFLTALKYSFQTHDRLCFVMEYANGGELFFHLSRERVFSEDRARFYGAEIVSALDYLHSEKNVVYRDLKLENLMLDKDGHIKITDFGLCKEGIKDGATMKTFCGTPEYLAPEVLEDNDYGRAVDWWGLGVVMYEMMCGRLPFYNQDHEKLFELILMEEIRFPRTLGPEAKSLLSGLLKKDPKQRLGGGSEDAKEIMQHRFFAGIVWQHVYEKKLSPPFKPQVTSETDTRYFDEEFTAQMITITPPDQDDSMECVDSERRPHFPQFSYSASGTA
# method.description: Live cell AKT1 WT target engagement by NanoBRET competitive probe displacement in HEK293 cells
# Assay type: binding
# condition.parameters: NanoBRET live cell target engagement, HEK293 cells, 2 h at 37° C.; read-out: AKT1 WT IC50
Assignment: determine reported IC50 for the given molecules.
Record the value in nM, omitting the unit from your answer.

Data request: Complete the entry with IC50 for COc1cncc(C(=O)N[C@H]2CCc3cc(-n4c(-c5cccnc5N)nc5ccc(-n6cccn6)nc54)ccc32)c1
Data returned: 4.46

Data request: Complete the entry with IC50 for Cc1ccc(C(=O)N[C@H]2CCc3cc(-n4c(-c5cccnc5N)nc5ccc(-n6cccn6)nc54)ccc32)cn1
Data returned: 6.46

Data request: Complete the entry with IC50 for Cc1cc(C(=O)N[C@H]2CCc3cc(-n4c(-c5cccnc5N)nc5ccc(-n6cccn6)nc54)ccc32)nn1C
Data returned: 721

Data request: Complete the entry with IC50 for Cc1cnc(-c2ccc3nc(-c4cccnc4N)n(-c4ccc5c(c4)CC[C@@H]5n4ccnn4)c3n2)s1
Data returned: 45.6
